# Test system: recombinant type II pullulanase Sumo-PulPy
# Experimental details: Effect of metal ions and chemical reagents on the enzyme activity of Sumo-PulPy
# Format: biochemical, Pyrococcus yayanosii CH1
# Cond: reagent 2 mM; 100% = no reagent, 95° C., pH 6.6
// classify: if (Relative enzyme activity (%) < 90%) class 1 else class 0

{"Smiles text": "[Cl-].[K+]", "System tested": "recombinant type II pullulanase Sumo-PulPy", "Class label": "class 0"}

Input "O=S(=O)([O-])[O-].[Zn+2]" ; condition: Relative enzyme activity (%) strictly below 90%. Does it hold?
class 1

Here is the next molecule: "O=S(=O)([O-])[O-].[Ni+2]"
class 1

Here is the next molecule: "O=S(=O)([O-])[O-].[Fe+2]"
class 0
